target: alpha2B adrenergic receptors (Homo sapiens); construct: expressed in transfected cells; host or cells: NIH-3T3; assay: Receptor Selection and Amplification Technology (RSAT) assay, alpha2B; assay type: cell-based; settings: fraction of maximal effect of standard full agonist brimonidine (UK14304)
As shown below, each of these molecules has a reported Alpha 2B intrinsic activity value.
property-name: Alpha 2B intrinsic activity

[[record]]
molecule = "CC(C)C1=C(c2ccc(F)cc2)C(Cc2c[nH]c(=S)[nH]2)CC1 (stereo not shown)"
target_under_test = "alpha2B adrenergic receptors (Homo sapiens)"
observed_value = 0.79

[[record]]
molecule = "S=c1[nH]cc(CC2CCc3ccccc32)[nH]1 (stereo not shown) [drawing 16]"
target_under_test = "alpha2B adrenergic receptors (Homo sapiens)"
observed_value = 0.91

[[record]]
molecule = "O=C1c2ccccc2CC[C@H]1Cc1c[nH]c(=S)[nH]1"
target_under_test = "alpha2B adrenergic receptors (Homo sapiens)"
observed_value = 0.83

[[record]]
molecule = "S=c1[nH]cc(CC2CCCc3ccccc32)[nH]1 (stereo not shown)"
target_under_test = "alpha2B adrenergic receptors (Homo sapiens)"
observed_value = 0.93


---

Target: alpha2B adrenergic receptors (Homo sapiens, UniProt P18089)
Construct: expressed in transfected cells; host or cells: NIH-3T3
Assay: Receptor Selection and Amplification Technology (RSAT) assay, alpha2B
Type: cell-based
Conditions: fraction of maximal effect of standard full agonist brimonidine (UK14304)
Excerpt: The imidazole-2-thione compounds of the invention are agonists of alpha2 adrenergic receptors, particularly they tend to be specific or selective agonists of alpha2B and/or to a lesser extent alpha2C adrenergic receptors, in preference over alpha2A adrenergic receptors. […] Al., 1995, Pharmacol. Toxicol. 76, pp. 308-311 (incorporated herein by reference) and is also described below. […]
property-name: Alpha 2B intrinsic activity

[[record]]
molecule = "S=c1[nH]cc(C2Cc3cccc(Cl)c3C2)[nH]1 (stereo not shown)"
observed_value = 1.15

[[record]]
molecule = "CC1=CCC(Cc2c[nH]c(=S)[nH]2)CC1 (stereo not shown)"
observed_value = 0.72

[[record]]
molecule = "S=c1[nH]cc(CC2CCC3=C2CCCC3)[nH]1 (stereo not shown)"
observed_value = 1.06

[[record]]
molecule = "COc1cc(F)c2c(c1)CC(c1c[nH]c(=S)[nH]1)C2 (stereo not shown)"
observed_value = 1.02


---

As shown below, each of these molecules has a reported EC50 value.
Target: alpha2B adrenergic receptors (Homo sapiens)
Sequence (P18089 1-450): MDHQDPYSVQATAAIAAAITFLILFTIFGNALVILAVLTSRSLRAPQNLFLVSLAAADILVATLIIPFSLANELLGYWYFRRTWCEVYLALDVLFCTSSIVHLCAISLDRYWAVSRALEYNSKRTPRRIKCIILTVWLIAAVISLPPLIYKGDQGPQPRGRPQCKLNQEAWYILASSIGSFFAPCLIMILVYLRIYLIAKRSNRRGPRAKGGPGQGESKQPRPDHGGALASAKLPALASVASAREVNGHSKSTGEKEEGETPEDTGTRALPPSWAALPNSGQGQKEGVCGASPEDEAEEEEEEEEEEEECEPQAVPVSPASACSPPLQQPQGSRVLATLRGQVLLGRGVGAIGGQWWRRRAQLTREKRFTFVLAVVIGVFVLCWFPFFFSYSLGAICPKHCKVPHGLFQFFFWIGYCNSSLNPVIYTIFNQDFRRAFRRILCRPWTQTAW
Test: Receptor Selection and Amplification Technology (RSAT) assay, alpha2B
Conditions: NA = not active at concentrations less than 10 micromolar, read-out: Alpha 2B EC50
property-name: EC50

[[record]]
molecule = "CC1=C(Br)C(Cc2c[nH]c(=S)[nH]2)CC1 (stereo not drawn)"
observed_value = "27 nM"

[[record]]
molecule = "Cc1ccc2c(c1)CC(c1c[nH]c(=S)[nH]1)C2 (stereo not drawn)"
observed_value = "27 nM"

[[record]]
molecule = "COc1ccc2c(c1)CCC2Cc1c[nH]c(=S)[nH]1 (stereo not drawn)"
observed_value = "1590 nM"

[[record]]
molecule = "S=c1[nH]cc(C[C@H]2CCc3ccccc32)[nH]1"
observed_value = "7.5 nM"

[[record]]
molecule = "O=C1c2c(Cl)cccc2CCC1Cc1c[nH]c(=S)[nH]1 (stereo not drawn)"
observed_value = "115 nM"

[[record]]
molecule = "S=c1[nH]cc(C2CCc3ccccc3CC2)[nH]1"
observed_value = "17 nM"

[[record]]
molecule = "Cc1ccc2c(c1)C(Cc1c[nH]c(=S)[nH]1)CC2 (stereo not drawn)"
observed_value = "19 nM"

[[record]]
molecule = "Cc1ccc(C)c2c1CC(c1c[nH]c(=S)[nH]1)C2"
observed_value = "7 nM"

[[record]]
molecule = "Fc1ccc2c(c1F)CCC2Cc1c[nH]c(=S)[nH]1 (stereo not drawn)"
observed_value = "834 nM"

[[record]]
molecule = "S=c1[nH]cc(CC2CCC=C2Cl)[nH]1 (stereo not drawn)"
observed_value = "28 nM"

[[record]]
molecule = "S=c1[nH]cc(CC2CCc3ncccc3C2)[nH]1 (stereo not drawn)"
observed_value = "1590 nM"

[[record]]
molecule = "S=c1[nH]cc(CC2CCc3ccccc32)[nH]1 (stereo not drawn) [drawing 16]"
observed_value = "10 nM"


---

target: alpha2B adrenergic receptors (Homo sapiens, UniProt P18089); assay: Receptor Selection and Amplification Technology (RSAT) assay, alpha2B; details: NA = not active at concentrations less than 10 micromolar, read-out: Alpha 2B EC50
As shown below, each of these compounds has a reported EC50 value.
property-name: EC50 (nM)

[[record]]
compound = "CC1=C(c2ccc([N+](=O)[O-])cc2)C(Cc2c[nH]c(=S)[nH]2)CC1 (centres unmarked)"
observed_value = 21

[[record]]
compound = "O=C1c2c(F)cccc2CCC1Cc1c[nH]c(=S)[nH]1 (centres unmarked)"
observed_value = 172

[[record]]
compound = "S=c1[nH]cc(CC2CCCc3cccc(Cl)c32)[nH]1 (centres unmarked)"
observed_value = 74

[[record]]
compound = "CC=CC1=CCCC1Cc1c[nH]c(=S)[nH]1 (centres unmarked)"
observed_value = 1620

[[record]]
compound = "CC1=C(c2ccc(C#N)cc2)C(Cc2c[nH]c(=S)[nH]2)CC1 (centres unmarked)"
observed_value = 22

[[record]]
compound = "Cc1ccc(C)c2c1CCC2Cc1c[nH]c(=S)[nH]1 (centres unmarked)"
observed_value = 105

[[record]]
compound = "S=c1[nH]cc(CC2CCC3=C2CCCC3)[nH]1 (centres unmarked)"
observed_value = 30

[[record]]
compound = "CCC1=CC(Cc2c[nH]c(=S)[nH]2)CC1 (centres unmarked)"
observed_value = 750

[[record]]
compound = "CC(C)CC1=CCCC1Cc1c[nH]c(=S)[nH]1 (centres unmarked)"
observed_value = 260

[[record]]
compound = "N#C/C=C1\\c2ccccc2CCC1Cc1c[nH]c(=S)[nH]1 (centres unmarked)"
observed_value = 160

[[record]]
compound = "Fc1cc(F)cc(C2=CCC[C@@H]2Cc2c[nH]c(=S)[nH]2)c1"
observed_value = 1600

[[record]]
compound = "S=c1[nH]cc(C[C@@H]2CCc3ccccc3C2)[nH]1"
observed_value = 13.7

[[record]]
compound = "C#CC1=CCC(Cc2c[nH]c(=S)[nH]2)CC1 (centres unmarked)"
observed_value = 265

[[record]]
compound = "Fc1ccc2c(c1)CCC2Cc1c[nH]c(=S)[nH]1 (centres unmarked)"
observed_value = 41

[[record]]
compound = "CCC1=C(C)CCC(Cc2c[nH]c(=S)[nH]2)C1 (centres unmarked)"
observed_value = 6

[[record]]
compound = "S=c1[nH]cc(C[C@@H]2CCC3=C(CCCC3)C2)[nH]1"
observed_value = 60

[[record]]
compound = "CCC1=CCC(Cc2c[nH]c(=S)[nH]2)CC1 (centres unmarked)"
observed_value = 451


---

Biological target: alpha2C adrenergic receptors (Homo sapiens, UniProt P18825)
Construct: expressed in transfected cells; host or cells: NIH-3T3
Sequence (P18825 1-462): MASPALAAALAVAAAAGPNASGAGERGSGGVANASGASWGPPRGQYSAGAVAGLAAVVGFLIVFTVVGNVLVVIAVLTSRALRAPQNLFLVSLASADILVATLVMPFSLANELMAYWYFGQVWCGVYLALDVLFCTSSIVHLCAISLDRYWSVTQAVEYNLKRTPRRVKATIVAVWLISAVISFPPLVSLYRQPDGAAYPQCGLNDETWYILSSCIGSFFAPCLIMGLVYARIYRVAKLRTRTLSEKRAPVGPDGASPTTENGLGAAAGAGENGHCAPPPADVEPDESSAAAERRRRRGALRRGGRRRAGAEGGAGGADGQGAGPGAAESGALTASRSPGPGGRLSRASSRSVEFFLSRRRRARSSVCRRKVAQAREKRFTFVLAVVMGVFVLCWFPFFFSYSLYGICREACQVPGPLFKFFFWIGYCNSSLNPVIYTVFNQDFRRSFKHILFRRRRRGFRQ
Experiment: Receptor Selection and Amplification Technology (RSAT) assay, alpha2C
Type: cell-based
Details: NA = not active at concentrations less than 10 micromolar, read-out: Alpha 2C EC50
pEC50: −log10 of the molar value.
property-name: pEC50

[[record]]
compound = "CC1Cc2ccccc2C1Cc1c[nH]c(=S)[nH]1 (stereo not shown)"
censoring_sign = "<"
observed_value = 5.70

[[record]]
compound = "CC1=C(c2ccc(F)cc2)C(Cc2c[nH]c(=S)[nH]2)CC1 (stereo not shown)"
censoring_sign = "="
observed_value = 7.66

[[record]]
compound = "Cc1cccc2c1C(=O)C(Cc1c[nH]c(=S)[nH]1)CC2 (stereo not shown)"
censoring_sign = "="
observed_value = 7.18

[[record]]
compound = "Cc1ccc2c(c1)CC(c1c[nH]c(=S)[nH]1)C2 (stereo not shown)"
censoring_sign = "="
observed_value = 6.43

[[record]]
compound = "Fc1ccc(C2=CCCC2Cc2c[nH]c(=S)[nH]2)cc1 (stereo not shown)"
censoring_sign = "="
observed_value = 6.82

[[record]]
compound = "COc1ccc2c(c1)CCC2Cc1c[nH]c(=S)[nH]1 (stereo not shown)"
censoring_sign = "<"
observed_value = 5.70

[[record]]
compound = "Cc1c(Cl)ccc2c1CC(c1c[nH]c(=S)[nH]1)C2 (stereo not shown)"
censoring_sign = "="
observed_value = 6.25

[[record]]
compound = "COc1ccc2c(c1)C(Cc1c[nH]c(=S)[nH]1)CC2 (stereo not shown)"
censoring_sign = "="
observed_value = 6.86

[[record]]
compound = "COc1ccc(C2=CCCC2Cc2c[nH]c(=S)[nH]2)cc1 (stereo not shown)"
censoring_sign = "="
observed_value = 6.25

[[record]]
compound = "O=C1c2c(F)cccc2CCC1Cc1c[nH]c(=S)[nH]1 (stereo not shown)"
censoring_sign = "="
observed_value = 6.97

